Just for reference, patent US20200079833A1 is where these values come from.

- experimental.target: T1, glucose-dependent insulinotropic peptide (gastric inhibitory polypeptide) receptor (human, UniProt P48546 22-466)
- T1 sequence (looked up): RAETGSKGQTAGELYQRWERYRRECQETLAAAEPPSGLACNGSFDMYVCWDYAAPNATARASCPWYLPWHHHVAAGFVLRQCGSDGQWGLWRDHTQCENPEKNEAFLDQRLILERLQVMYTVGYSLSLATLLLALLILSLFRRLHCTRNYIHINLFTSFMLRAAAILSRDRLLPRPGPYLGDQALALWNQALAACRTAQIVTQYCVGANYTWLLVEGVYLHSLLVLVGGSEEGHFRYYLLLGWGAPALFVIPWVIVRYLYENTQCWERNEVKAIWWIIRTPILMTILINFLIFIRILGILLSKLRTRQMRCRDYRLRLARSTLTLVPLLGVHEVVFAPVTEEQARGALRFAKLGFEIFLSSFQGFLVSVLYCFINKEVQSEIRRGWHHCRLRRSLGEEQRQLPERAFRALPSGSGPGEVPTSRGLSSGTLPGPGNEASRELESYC
- test.method.notes: cell-based or functional assay
Starred links: 1 amine or outer side, 2 acyl side, 3 side chain; linkers in the order of their positions; H or OH if unused. Non-standard residues stand in square brackets, D forms with d. Groups on a side chain read outwards from the residue. Primed or numbered codes have the meaning given here. No end group written: not given here. *: point of attachment. γGlu = O=C(O)[C@H](CCC(=O)[*:2])N[*:1]; Stearoyl = CCCCCCCCCCCCCCCCCC(=O)*; αMeF = C[C@](N)(Cc1ccccc1)C(=O)O; αMeK = C[C@](N)(CCCCN)C(=O)O; αMeS = C[C@](N)(CO)C(=O)O; PEG2′ = not defined here; Aib = CC(C)(N)C(=O)O
observed.property: Primary assay EC50 (cAMP), n2 (nM)

H[Aib]EGS[αMeF]TSDVSK([PEG2′-PEG2′-γGlu-Stearoyl])YLEGEAA[αMeK]E[αMeF]IA[αMeF]VVEGG-NH2 [SEQ ID NO 60] : 25

P. H[Aib]EGS[αMeF]TSDV[αMeS]S[αMeF]LEGEAAK([PEG2′-PEG2′-γGlu-Stearoyl])E[αMeF]IA[αMeF]VV[αMeK]GG-NH2 [SEQ ID NO 3]
Q. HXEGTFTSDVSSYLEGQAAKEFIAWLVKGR (Aib 2; α-MeSer 11; C-terminal amide) [SEQ ID NO 21]
Challenge: Thinking about recorded Primary assay EC50 (cAMP), n2 values, which is higher, P or Q ? Write down the label of the entry you select.
Response given: Q
